Attribution: paper PMC5960634

Biological target: recombinant full length human estrogen receptor alpha (ERα) (Homo sapiens)
Assay: [3H]-ketamine displacement assay
pIC50: −log10 of the molar value. Where a name gives a salt, the structure may show the parent alone.
Consider the following compounds and their measured pIC50 readings.
observed_property: pIC50

compound	test_result
N[C@@]1(c2ccccc2Cl)CCC[C@@H](O)C1=O	5.47
CNC1(c2ccccc2Cl)CCCCC1=O (stereo not drawn) [ketamine, Ketamine hydrochloride]	5.64
N[C@]1(c2ccccc2Cl)CCC[C@H](O)C1=O	5.45

----------
Biological target: recombinant full length human estrogen receptor alpha (ERα) (Homo sapiens, UniProt P03372)
Sequence (P03372 whole entry): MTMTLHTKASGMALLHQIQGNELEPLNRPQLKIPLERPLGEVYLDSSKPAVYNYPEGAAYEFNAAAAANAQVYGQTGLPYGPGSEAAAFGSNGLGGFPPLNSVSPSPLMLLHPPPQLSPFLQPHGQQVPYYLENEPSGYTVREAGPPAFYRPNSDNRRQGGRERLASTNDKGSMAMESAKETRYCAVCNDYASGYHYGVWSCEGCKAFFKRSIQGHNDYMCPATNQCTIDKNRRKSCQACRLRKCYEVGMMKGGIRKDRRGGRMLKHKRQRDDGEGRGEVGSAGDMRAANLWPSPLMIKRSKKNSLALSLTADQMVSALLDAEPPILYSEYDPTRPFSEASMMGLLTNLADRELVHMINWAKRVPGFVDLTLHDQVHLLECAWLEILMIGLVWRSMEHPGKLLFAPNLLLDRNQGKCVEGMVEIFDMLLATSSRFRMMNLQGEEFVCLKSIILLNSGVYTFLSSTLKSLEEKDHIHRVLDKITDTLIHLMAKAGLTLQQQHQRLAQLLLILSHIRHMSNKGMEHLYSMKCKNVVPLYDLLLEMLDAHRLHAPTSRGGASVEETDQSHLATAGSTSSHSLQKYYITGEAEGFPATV
Test: [3H]-ketamine saturation radioligand binding assay
Settings: read-out: KD of [3H]-ketamine binding to ERα (saturation binding); nine concentrations of [3H]-ketamine, 4 nM to 400 nM; non-linear regression
observed_property: Kd (nM)

compound	observed_property	test_result
CNC1(c2ccccc2Cl)CCCCC1=O (racemic) [[^3H]-ketamine]	Kd	344
